# Tested on: HLA-A*0201 loaded with the Carcinoembryonic antigen (CEA)-derived … peptide (biotinylated on the C-terminal biotinylation tag)
# Experiment: SPR (Biacore), Example 4
Kd values, listed per item

So for SEQ ID NO 56 (receptor) MGHLPKPTLWAEPGSVITMDQPVTLRCQGGQETQEYRLYREKKTAPWITRIPQELVKKGQFPIPSITWEHAGRYRCYYGSDTAGRSESSDPLELVVTGIYLAPTLSAQPSPVVNSGGNVTLQCDSQVAFDGFILCKEGEDEHPQCLNSQPHARGSSRAIFSVGPVSPSRRWWYRCYAYDSNSPYEWSLPSDLLELLVL , the logged Kd turned out to be ≤ 1 µM

So for SEQ ID NO 42 (receptor) MGHLPKPTLWAEPGSVITLGQPVTLRCQGGQETQEYRLYREKKTAPWITRIPQELVKKGQFPIPSITWEHAGRYRCYYGSDTAGRSESSDPLELVVTGVYIKPTLSAQPSPVVNSGGNVTLQCDSQVAFDGFILCKEGEDEHPQCLNSQPHARGSSRAIFSVGPVSPGRRWWYRCYAYDSNSPYEWSLPSDLLELLVL , the logged Kd turned out to be ≤ 1 µM
